Every entry's value here was drawn from patent US4623662A.

Molecular target: fatty acyl CoA: cholesterol acyl transferase (ACAT) (Rattus norvegicus)
Construct: The supernatant, containing the microsomal fraction, served as the source of the cholesterol-esterifying enzyme; from tissue; host or cells: rat adrenals, supernatant of 1,000 x g centrifugation containing the microsomal fraction
Test: Inhibition of fatty acyl CoA:cholesterol acyl transferase (ACAT), rat adrenal enzyme
Assay type: biochemical
Conditions: rat adrenal ACAT; final concentration 5.2 μg/ml; read-out: % Inhibition
Given measured inhibition at 5.2 µg/mL, output Condition met if it is greater than or equal to 90% and Condition not met if not.

Q) Decide: inhibition at 5.2 µg/mL of O=C(Nc1cc(Cl)c(Cl)cc1Cl)N(Cc1ccccc1)C(Cc1ccccc1)c1ccc(OCc2ccccc2)cc1 (centres unmarked) >= 90%?
A) Condition met

Q) Record "Cc1cc(Cl)ccc1NC(=O)N(Cc1ccc(Cl)cc1)Cc1cccc2ccccc12" ; criterion: inhibition at 5.2 µg/mL no lower than 90%. Met?
A) Condition met

Q) // inclusive: inhibition at 5.2 µg/mL at least 90%? input: "CCCCN(CCc1cccc(OC)c1)C(=O)Nc1ccc(C)cc1C"
A) Condition met

Q) Could you please find out whether "CCCCCCCN(Cc1ccc(OCCCC)cc1)C(=O)Nc1ccc(F)cc1F" has inhibition at 5.2 µg/mL that meets 90% or exceeds it?
A) Condition not met

----------
Molecular target: fatty acyl CoA: cholesterol acyl transferase (ACAT) (Rattus norvegicus, UniProt O70536)
Construct: The supernatant, containing the microsomal fraction, served as the source of the cholesterol-esterifying enzyme; from tissue; host or cells: rat adrenals, supernatant of 1,000 x g centrifugation containing the microsomal fraction
Sequence (O70536 whole entry): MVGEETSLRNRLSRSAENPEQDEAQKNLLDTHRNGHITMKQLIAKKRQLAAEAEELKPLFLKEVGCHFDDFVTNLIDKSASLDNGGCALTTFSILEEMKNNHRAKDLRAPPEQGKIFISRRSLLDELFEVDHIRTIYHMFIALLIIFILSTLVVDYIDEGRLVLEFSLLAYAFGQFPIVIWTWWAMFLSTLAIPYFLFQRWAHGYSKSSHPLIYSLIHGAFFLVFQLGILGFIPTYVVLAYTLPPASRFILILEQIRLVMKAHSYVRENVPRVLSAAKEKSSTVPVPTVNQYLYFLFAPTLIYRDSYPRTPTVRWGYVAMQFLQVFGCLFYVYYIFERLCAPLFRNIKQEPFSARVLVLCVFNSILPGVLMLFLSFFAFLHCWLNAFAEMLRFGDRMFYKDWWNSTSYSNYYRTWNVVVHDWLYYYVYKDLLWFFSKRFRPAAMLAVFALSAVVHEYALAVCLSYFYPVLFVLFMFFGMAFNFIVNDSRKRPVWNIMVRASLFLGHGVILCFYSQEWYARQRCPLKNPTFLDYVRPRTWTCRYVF
Test: Inhibition of fatty acyl CoA:cholesterol acyl transferase (ACAT), rat adrenal enzyme
Format: biochemical
Settings: rat adrenal ACAT; final concentration 5.2 μg/ml; read-out: % Inhibition
Decide by inhibition at 5.2 µg/mL: equal to or exceeding 90% means t, less means f.

Q) Given the entry "O=C(Nc1ccc(F)cc1F)N(Cc1ccc(Cl)cc1)Cc1cccc2ccccc12" , answer whether its inhibition at 5.2 µg/mL meets or surpasses 90%.
A) f

Q) Determine whether this compound has inhibition at 5.2 µg/mL no lower than 90%: "CCCCCCCN(Cc1ccc(OCCCC)cc1)C(=O)Nc1cccc(C(F)(F)F)c1"
A) f

Q) Test whether the compound "CCCCN(Cc1ccccc1)C(=O)Nc1cccc(Cl)c1OC" records inhibition at 5.2 µg/mL of 90% or higher.
A) f

Q) Record "CCCCc1ccc(CN(CCCC)C(=O)Nc2ccc(C)cc2C)cc1" ; criterion: inhibition at 5.2 µg/mL no lower than 90%. Met?
A) t

Q) Test whether the compound "CCCCc1ccc(CN(Cc2ccccc2)C(=O)Nc2ccc(Cl)cc2C)cc1" records inhibition at 5.2 µg/mL of 90% or higher.
A) t

Q) Kindly determine if inhibition at 5.2 µg/mL recorded for "CCCCN(Cc1ccc(C(F)(F)F)cc1)C(=O)Nc1ccc(C)cc1C" is above or exactly 90%.
A) t

Q) Please indicate if the recorded inhibition at 5.2 µg/mL for "CCCCCCCN(CCc1ccccc1)C(=O)Nc1cc(Cl)c(Cl)cc1Cl" meets or exceeds 90%.
A) f

Q) // inclusive: inhibition at 5.2 µg/mL at least 90%? input: "CCCCCOc1ccc(CN(Cc2ccc(CCCCC)cc2)C(=O)Nc2cc(Cl)c(Cl)cc2Cl)cc1"
A) f

Q) Hello, I need to know if "CCCCN(Cc1ccccc1)C(=O)Nc1cc(Cl)c(NC(=O)CCl)c(Cl)c1" has measured inhibition at 5.2 µg/mL not below 90%. Thanks!
A) f

Q) Textbook exercise: given the entry "CCCCN(Cc1ccccc1)C(=O)Nc1cc(C)ccc1C" , state whether its inhibition at 5.2 µg/mL is greater than or equal to 90%.
A) t

Q) Decide: inhibition at 5.2 µg/mL of "CCCCCCCN(Cc1ccc(OCCCC)cc1)C(=O)Nc1ccc(Cl)cc1Cl" >= 90%?
A) f

Q) Does the reported inhibition at 5.2 µg/mL for "CCCCN(CC(C)(c1ccccc1)c1ccccc1)C(=O)Nc1ccc(C)cc1C" fall at or above the 90% mark?
A) t

Q) Check this compound for inhibition at 5.2 µg/mL at or above 90%: "CCCCN(Cc1ccccc1)C(=O)Nc1ccccc1C"
A) f

Q) Textbook exercise: given the entry "CCCCc1ccc(CN(Cc2ccccc2)C(=O)Nc2ccc(Oc3ccccc3)cc2)cc1" , state whether its inhibition at 5.2 µg/mL is greater than or equal to 90%.
A) t

Q) Textbook exercise: given the entry "CCCCN(Cc1ccc(Br)cc1)C(=O)Nc1ccc(C)cc1C" , state whether its inhibition at 5.2 µg/mL is greater than or equal to 90%.
A) f

Q) Is the recorded value of inhibition at 5.2 µg/mL equal to or greater than 90% for this compound? "CCCCN(Cc1ccccc1)C(=O)Nc1ccc(C)c(C)c1"
A) f

Q) Would you say "O=C(Nc1cccc(C(F)(F)F)c1)N(Cc1ccc(Cl)cc1)Cc1cccc2ccccc12" shows inhibition at 5.2 µg/mL at minimum 90%?
A) f
